Target: Acetylcholinesterase (Homo sapiens)
Test: Inhibition of human erythrocyte AChE using acetylthiocholine iodide as substrate incubated for 20 mins by DTNB reagent based spectrophotometric method
pIC50: −log10 of the molar value.
parameter: pIC50

compound="CCOC1(c2cc(O)ccc2O)C=C(CC/C=C(\\C)CCC=C(C)C)C(=O)O1 (configuration not stated)" parameter=pIC50 test_result=5.13
compound="COC/C(C=O)=C\\CCC1=CC(c2cc(O)ccc2O)OC1=O (configuration not stated)" parameter=pIC50 test_result=5.07

====

Target: Prostaglandin G/H synthase 2 (Homo sapiens, UniProt P35354)
Sequence (P35354 whole entry): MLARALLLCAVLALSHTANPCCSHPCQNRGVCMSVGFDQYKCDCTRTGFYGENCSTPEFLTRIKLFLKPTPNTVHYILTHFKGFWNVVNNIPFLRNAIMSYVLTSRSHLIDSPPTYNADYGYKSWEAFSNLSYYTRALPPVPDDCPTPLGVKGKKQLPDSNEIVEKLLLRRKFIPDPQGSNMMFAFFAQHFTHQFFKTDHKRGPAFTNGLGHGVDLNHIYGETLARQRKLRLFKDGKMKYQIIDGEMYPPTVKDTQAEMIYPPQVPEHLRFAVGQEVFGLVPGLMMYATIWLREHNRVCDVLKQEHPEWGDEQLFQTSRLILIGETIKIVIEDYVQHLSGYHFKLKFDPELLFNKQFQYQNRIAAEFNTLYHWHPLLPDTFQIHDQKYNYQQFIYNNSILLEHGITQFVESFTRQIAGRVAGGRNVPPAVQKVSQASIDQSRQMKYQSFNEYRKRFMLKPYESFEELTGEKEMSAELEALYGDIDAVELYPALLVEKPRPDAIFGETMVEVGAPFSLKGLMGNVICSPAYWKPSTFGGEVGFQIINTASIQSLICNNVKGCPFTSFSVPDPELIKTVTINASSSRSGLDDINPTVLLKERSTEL
Test: Inhibition of human recombinant COX-2 pretreated with compound for 10 mins followed by substrate addition for 10 mins by fluorescent inhibitor screening assay
Catalogue of IC50 values
parameter: IC50 (nM)

compound="CC(C)=CCCC1=C[C@]2(OC1=O)c1cc(O)ccc1OC(=O)[C@@]2(CC/C=C(\\C)CCC=C(C)C)CC(=O)c1cc(O)ccc1O (racemic)" parameter=IC50 test_result=1290
compound="CC(C)=CCC/C(C)=C/CCC1=C[C@]2(OC1=O)c1cc(O)ccc1OC(=O)[C@@]2(CCC=C(C)C)CC(=O)c1cc(O)ccc1O (racemic)" parameter=IC50 test_result=1290
compound="CC(C)=CCC/C(C)=C/CCC1=C[C@]2(OC1=O)c1cc(O)ccc1OC(=O)[C@]2(CC/C=C(\\C)CCC=C(C)C)CC(=O)c1cc(O)ccc1O (racemic)" parameter=IC50 test_result=1290

====

Test: Toxicity in brine shrimp assessed as induction of lethality
Conditions: artemia salina; read-out: LD50 (the source's name)
parameter: LC50

mol=C=C(C)[C@H]1O[C@H]2CC[C@@]3(C)[C@@](O)(CC[C@@]4(O)[C@@H]5OC(C)(C)[C@H]6C[C@@H]7C(=C)Cc8ccc9[nH]c(c5c9c8[C@@]76O)[C@]34C)[C@]23O[C@@H]3[C@H]1O parameter=LC50 test_result="4.6 µM"
mol=C=C(C)[C@H]1O[C@H]2CC[C@@]3(C)[C@@](O)(CC[C@@]4(O)[C@@H]5OC(C)(C)[C@H]6C[C@@H]7C(=C)Cc8c(Cl)cc9[nH]c(c5c9c8[C@@]76O)[C@]34C)[C@]23O[C@@H]3[C@H]1O parameter=LC50 test_result="3.2 µM"

====

Biological target: Prostaglandin G/H synthase 2 (Homo sapiens)
Assay: Inhibition of COX-2 (unknown origin) by fluorescent inhibitor screening assay
pIC50: −log10 of the molar value.
parameter: pIC50

molecule=C/C(=C/CC/C(C)=C/CC/C(=C/C(=O)c1cc(O)ccc1O)C(=O)O)CO test_result=5.46
molecule=C/C(=C/CC/C(C)=C/CC[C@]1(C(=O)O)CC(=O)c2cc(O)ccc2O1)C(=O)O test_result=5.98
molecule=C/C(=C\CC/C(C)=C/C/C=C(/CC(=O)c1cc(O)ccc1O)C(=O)O)CO test_result=5.32
molecule="C/C(=C\\CC/C(C)=C/CCCC1(O)Oc2ccc(O)cc2C1=O)CO (centres undefined)" test_result=5.86

====

Target: Acetylcholinesterase (Homo sapiens, UniProt P22303)
Sequence (P22303 whole entry): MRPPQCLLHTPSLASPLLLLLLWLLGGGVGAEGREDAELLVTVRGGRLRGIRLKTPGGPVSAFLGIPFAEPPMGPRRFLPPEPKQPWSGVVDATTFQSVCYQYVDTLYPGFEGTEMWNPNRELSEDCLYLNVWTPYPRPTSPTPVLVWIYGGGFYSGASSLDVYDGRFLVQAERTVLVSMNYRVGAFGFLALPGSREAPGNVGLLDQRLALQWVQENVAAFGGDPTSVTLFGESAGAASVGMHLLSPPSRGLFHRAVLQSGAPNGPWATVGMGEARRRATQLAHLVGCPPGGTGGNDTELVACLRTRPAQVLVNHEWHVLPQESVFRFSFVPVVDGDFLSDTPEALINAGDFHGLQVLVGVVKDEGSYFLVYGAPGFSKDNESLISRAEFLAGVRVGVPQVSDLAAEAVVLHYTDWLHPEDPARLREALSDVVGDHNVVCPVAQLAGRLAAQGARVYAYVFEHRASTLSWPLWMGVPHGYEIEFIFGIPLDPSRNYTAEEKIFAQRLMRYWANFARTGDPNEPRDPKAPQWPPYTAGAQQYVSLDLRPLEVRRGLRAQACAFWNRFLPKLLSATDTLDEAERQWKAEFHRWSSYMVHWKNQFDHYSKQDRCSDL
Assay: Inhibition of AChE (unknown origin)
Catalogue of IC50 values
parameter: IC50 (µM)

mol=COc1ccc(-c2cc3c(c(=O)o2)C[C@]2(O)[C@@]4(C)CC[C@@H](O)C(C)(C)[C@]4(O)CC[C@@]2(C)O3)cc1 test_result=0.64
mol=CC(=O)O[C@@H]1C[C@@]2(C)Oc3cc(C)oc(=O)c3C[C@@H]2[C@@]2(C)C=CC(=O)C(C)(C)[C@H]12 test_result=13.6
